Quick list: Percent CD33 Surface Expression, Monocyte % CD33 per entry.
- Target system: human CD33 (human, UniProt P20138 18-364)
- Sequence (P20138 18-364): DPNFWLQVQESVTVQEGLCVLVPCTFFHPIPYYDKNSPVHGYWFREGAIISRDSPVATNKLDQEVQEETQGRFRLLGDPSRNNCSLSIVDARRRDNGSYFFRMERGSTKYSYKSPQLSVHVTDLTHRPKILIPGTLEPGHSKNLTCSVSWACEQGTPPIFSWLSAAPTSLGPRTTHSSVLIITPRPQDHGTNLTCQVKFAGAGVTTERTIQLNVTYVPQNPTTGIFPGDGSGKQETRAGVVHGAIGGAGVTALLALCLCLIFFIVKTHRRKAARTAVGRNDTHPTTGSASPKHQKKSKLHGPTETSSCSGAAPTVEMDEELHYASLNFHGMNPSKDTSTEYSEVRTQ
- Assay protocol: cell-based or functional assay
# output: bare number, implied unit %

These recorded examples may help you get a feel for the data.
[[record]]
binder = "C-90 (antibody, V domains shown, human IgG1) VH: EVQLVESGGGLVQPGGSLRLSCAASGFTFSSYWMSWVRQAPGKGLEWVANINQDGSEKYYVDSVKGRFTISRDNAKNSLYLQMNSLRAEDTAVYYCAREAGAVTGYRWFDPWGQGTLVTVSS VL: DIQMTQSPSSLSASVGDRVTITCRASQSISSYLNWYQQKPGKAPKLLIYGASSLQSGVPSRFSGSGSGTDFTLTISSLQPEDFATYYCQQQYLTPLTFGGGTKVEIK"
readout_value = 35.4

[[record]]
binder = "C-44 (antibody, V domains shown, human IgG1) VH: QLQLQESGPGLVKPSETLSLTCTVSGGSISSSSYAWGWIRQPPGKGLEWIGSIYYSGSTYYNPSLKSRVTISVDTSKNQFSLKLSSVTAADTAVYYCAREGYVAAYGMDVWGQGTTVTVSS VL: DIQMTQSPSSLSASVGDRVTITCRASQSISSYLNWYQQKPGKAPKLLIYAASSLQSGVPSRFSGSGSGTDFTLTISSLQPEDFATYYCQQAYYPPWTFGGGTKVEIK"
readout_value = 24.8


Shift focus to the following entry.
Could you share which Percent CD33 Surface Expression, Monocyte % CD33 value was measured for C-13 (antibody, V domains shown, human IgG1) VH: EVQLVESGGGLVQPGGSLRLSCAASGFTFSSYWMSWVRQAPGKGLEWVANIKSDGSEKYYVDSVKGRFTISRDNAKNSLYLQMNSLRAEDTAVYYCARGPSYLASGAFDLWGRGTLVTVSS VL: EIVLTQSPATLSLSPGERATLSCRASQSVSSYLAWYQQKPGQAPRLLIYDASNRATGIPARFSGSGSGTDFTLTISSLEPEDFAVYYCQQAYVVPPRTFGGGTKVEIK ?
48
